B1: Hairpin Ribozyme (parent)
chain: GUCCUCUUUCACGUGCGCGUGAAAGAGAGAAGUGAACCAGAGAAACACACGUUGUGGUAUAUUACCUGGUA

- Variants of: B1
- Test Details: self-cleavage, relative activity (ratio to wild type); higher = more cleavage; co-transcriptional
Decide by self-cleavage: equal to or exceeding 0.2 means 1, less means 0.

INSERT INTO assay_data (variant_spec, assigned_category) VALUES
  ('C48G U63A', 0),
  ('U14A A41C', 1),
  ('U7C G57C', 0),
  ('A31U C46G', 1),
  ('C4U U63C', 0),
  ('G1A A26U', 0),
  ('G25A C48U', 0),
  ('C48A G51C', 0),
  ('C18G U67C', 1),
  ('U9G G34U', 1),
  ('C46U A47G', 0),
  ('G19A U60G', 1),
  ('C4A G54C', 0),
  ('C50A C65G', 0),
  ('G42C G68A', 0),
  ('U2G U14C', 1),
  ('G27A G56C', 0),
  ('U9A G51A', 1),
  ('U5G U20C', 1),
  ('G17U C46U', 0),
  ('C4A A49U', 0),
  ('G1U U14G', 0),
  ('G40A A61G', 0),
  ('U2G G40U', 0),
  ('U20G A22G', 1),
  ('G19A A24U', 1),
  ('C10A C16G', 1),
  ('C48A U55C', 0),
  ('A39U C46U', 0),
  ('U20A A43G', 1),
  ('A24U A28G', 1),
  ('A35C U53G', 1),
  ('G34A G42C', 1),
  ('C4U A35G', 1),
  ('U60C C66U', 1),
  ('C10A G13C', 1),
  ('U52G U58A', 1),
  ('A24G A35G', 1),
  ('U2C A26G', 0),
  ('G19U A30G', 0),
  ('G13U A31U', 0),
  ('C10G C16G', 1),
  ('A35C A39U', 1),
  ('A24G G51U', 1),
  ('A49G A59G', 0),
  ('G17U A41G', 1),
  ('G51U U62A', 1),
  ('G19U A28U', 1),
  ('G27C U33G', 0),
  ('C6U G17C', 1),
  ('U58G U62C', 0),
  ('A30U U62C', 0),
  ('A23G U52G', 1),
  ('U55A A61G', 0),
  ('G34U C50A', 1),
  ('A49G A59C', 0),
  ('A30C G40A', 0),
  ('C16U G32C', 0),
  ('G32A G51U', 0),
  ('A30C C38U', 1),
  ('G29A A47G', 1),
  ('U8C G68C', 1),
  ('C3A A47U', 0),
  ('U52A U58A', 1),
  ('U20G U70C', 1),
  ('G29A U67C', 0),
  ('U20A A36U', 1),
  ('A30U G57U', 0),
  ('U55A G56U', 0),
  ('G27A A47G', 0),
  ('U9G U70C', 1),
  ('U2G A45G', 0),
  ('G13U A44U', 0),
  ('C16G U62C', 1),
  ('G1C A22U', 0),
  ('A11U A31C', 0),
  ('C46U G69C', 0),
  ('G15C A64U', 0),
  ('U9G A64U', 0),
  ('G15U U58A', 1),
  ('U2A C16A', 1),
  ('U2C G32U', 0),
  ('C46U A47U', 0),
  ('U7C A41C', 1),
  ('A31U U60C', 0),
  ('C4G A11G', 1),
  ('C46A A61C', 1),
  ('C4U A28U', 0);
